# System: Tov112D
# Assay protocol: Primary qHTS to identify gynecologic anti-cancer compounds using libraries of approved drugs and bioactive compounds (AID 1345084); note: nearly all actives have a fitted effect of over 55% in size
# Measurement parameters: Gynecologic cancer cell panel viability, ATPlite luminescence, 48 h; series mostly up to 57.5 µM
# Excerpt: National Center for Advancing Translational Sciences [NCATS] Assay Overview: Chemotherapeutic drug responses vary from cancer to cancer and from patient to patient. […] ATPlite is a luminescence based assay reliant on the conversion of a luciferase substrate to light in the presence of ATP. As a cytotoxic compound will suppress growth and decrease the number of cells, the concentration of ATP will decrease, and less light signal will be detected in the well. […]
Inconclusive results are not listed. Activity calls are given as the source filed them. Calls come from the whole dose curve; as a rule, active = well fitted cell-killing curve with a large enough effect; inconclusive = small, poorly fitted or top-dose-only effect, or effect the other way; inactive = flat fitted curve, though single readings scatter.
# output must be one of true (active), false (inactive)

Use these answered entries as a reference point.
Compound	Assigned category
CC(C)=CCC[C@]1(C)C=Cc2c(O)c3c(c(CC=C(C)C)c2O1)O[C@]12C(=C[C@@H]4CC1C(C)(C)O[C@@]2(C/C=C(/C)C(=O)O)C4=O)C3=O	true
C=CCN1CC[C@]23c4c5ccc(O)c4O[C@H]2[C@@H](O)CC[C@@]3(O)[C@H]1C5	false
O=C1N[C@@H](Cc2ccccc2)CN2CCCC[C@@H]12	false
COC(=O)C12C(=O)C(C)(O)C(=O)C1(C)C(C)=CC1C34CCC(OC3=O)C(C)(C)C4CCC12C (stereo not given)	false

Which outcome was assigned to `CCCCn1cc(C(=O)c2cccc3ccccc23)c2ccccc21` in this test?
false

----------
# Target entity: Nucleoprotein (Lymphocytic choriomeningitis virus (strain Armstrong))
# Assay protocol: qHTS for Inhibitors of the Functional Ribonucleoprotein Complex (vRNP) of Lymphocytic Choriomeningitis Arenaviruses (LCMV): LCMV Primary Screen - GLuc reporter signal (AID 1347086); note: nearly all actives have a fitted effect of over 70% in size
# Measurement parameters: LCMV minigenome vRNP cell assay, Gaussia luciferase reporter; series mostly up to 57.5 µM
Records with an inconclusive call do not appear. Active and inactive are the calls of the source. Calls follow the shape of the full dose curve.
# output must be one of yes (1) = active, no (0) = inactive

Molecule	Target entity	Assigned category
CC(=O)OC[C@]12CCC(C)=C[C@H]1O[C@@H]1[C@H](O)[C@@H](OC(C)=O)[C@@]2(C)[C@]12CO2	Nucleoprotein (Lymphocytic choriomeningitis virus (strain Armstrong))	no (0)

Which outcome was assigned to `COC(=O)c1nccc2c1[nH]c1ccccc12` in this test?
no (0)

Which outcome was assigned to `CC[C@H](C)n1cc(C)c2c(C(=O)NCc3c(C)cc(C)[nH]c3=O)cc(-c3ccc(N4CCNCC4)nc3)cc21` in this test?
no (0)

Which outcome was assigned to `C=C/C(C)=C/[C@@]1(C)SC(=O)C(C)=C1O` in this test?
no (0)

Which outcome was assigned to `COC(=O)C=CC(=O)OC` in this test?
yes (1)

Which outcome was assigned to `Nc1ncnc2c1ncn2[C@H]1O[C@H](CO)[C@@H](O)[C@@H]1O` in this test?
no (0)

Which outcome was assigned to `FC(F)c1nc2ccccc2n1-c1nc(N2CCOCC2)nc(N2CCOCC2)n1` in this test?
yes (1)

Which outcome was assigned to COc1cc2c(cc1OC)C1CC(=O)C(CC(C)C)CN1CC2 (stereo not given) in this test?
no (0)

Which outcome was assigned to `CC(C)(C)NC(=O)[C@H]1CN(Cc2cccnc2)CCN1C[C@@H](O)C[C@@H](Cc1ccccc1)C(=O)N[C@H]1c2ccccc2C[C@H]1O` in this test?
no (0)

Which outcome was assigned to COC1CC(C)C(OC)c2cc(O)cc(c2O)NC(=O)C(C)=CC=CC(C)C(OC(N)=O)C(C)=CC(C)C1OC (stereo not given) in this test?
no (0)

----------
# Assay protocol: Redox Reaction Profiling qHTS: Assay Interference Panel against the NCATS CANVASS Library (AID 1347401);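 note: 100% = activation by 2 µM chloranil control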
# Measurement parameters: resazurin-DTT redox cycling, fluorescence, 15 min; series mostly up to 57.1 µM
Records with an inconclusive call do not appear. Active and inactive are the calls of the source. Calls come from the whole dose curve; as a rule, active = well fitted activation curve with a large enough effect; inconclusive = small, poorly fitted or top-dose-only effect; inactive = no such curve, though single readings can be large or run the other way.
Measured attribute: outcome

Sample answers from the record:
Compound	outcome
CCN1C[C@]2(C)CC[C@@H](O)[C@]34C1[C@H](C[C@H]23)C12CCC(CC14)[C@](O)(CO)[C@H]2O (some centres undefined)	inactive
CC[C@@H]1CN2CC[C@@]3(O)C(=Nc4cccc(OC)c43)[C@@H]2C[C@@H]1/C(=C\OC)C(=O)OC	inactive
c1ccc2c3c([nH]c2c1)CNCC3	inactive
CC1=CC2CC[C@@H]3[C@@H](C)C[C@H](C)[C@@H](C1)N23 (some centres undefined)	inactive
CC[N@@+]1([O-])C[C@]2(C)CC[C@@H](O)[C@@]34C5C[C@H]6CC[C@@]5(C(C[C@H]23)C41)[C@H](O)[C@@]6(O)CO (some centres undefined)	inactive

Return reported outcome; argument: `CO[C@@H](/C=C/CC/C=C/C(=O)O)[C@@H](O)[C@H](C)[C@@H](O)/C(C)=C/[C@H](C)C(=O)CCCC1CC(=O)NC(=O)C1`
inactive

Return reported outcome; argument: CN1C(=O)[C@]23CC4C(C)(C)[C@@]5(C[C@@]41CN2CC[C@@]3(C)O)C(=O)Nc1c5ccc2c1OC=CC(C)(C)O2 (some centres undefined)
inactive

Return reported outcome; argument: `CNCCc1ccc(O)cc1`
inactive

Return reported outcome; argument: COC(=O)C1=C2Nc3ccccc3[C@@]23CCN2CC(C(C)=O)C1C[C@H]23 (some centres undefined)
inactive

----------
# Assay protocol: Primary qHTS for inhibitors of MERS-S pseudo-typed particle cell entry (AID 1479149); note: nearly all actives have a fitted effect of over 60% in size
# Measurement parameters: MERS-S pseudotyped particle entry, luciferase; series mostly up to 57.1 µM
Inconclusive results are not listed. Active and inactive are the calls of the source. Calls come from the whole dose curve.
# output must be one of active, inactive

Use these answered entries as a reference point.
Compound	Assigned category
COC(=O)[C@H]1[C@@H](OC(=O)c2ccccc2)C[C@@H]2CC[C@H]1N2C	inactive
Nc1cccc2c1C(=O)N(C1CCC(=O)NC1=O)C2=O (centres undefined)	inactive
CC(=O)OC(C)(C)/C=C/C(=O)[C@](C)(O)[C@H]1C(O)C[C@@]2(C)[C@@H]3CC=C4[C@@H](C=C(O[C@@H]5O[C@H](CO)[C@@H](O)[C@H](O)[C@H]5O)C(=O)C4(C)C)[C@]3(C)C(=O)C[C@]12C (some centres undefined)	inactive
C[C@@H](O)[C@H]1C(=O)N2C(C(=O)OCOC(=O)C(C)(C)C)=C(SC3CN(C4=NCCS4)C3)[C@H](C)[C@H]12	inactive
CC(O)[C@H]1CC[C@H]2[C@@H]3CC[C@@H]4C[C@@H](O)CC[C@]4(C)[C@H]3CC[C@]12C (some centres undefined)	inactive
CCCCCCCCCCCCCCCC(=O)OC[C@@H](NC(=O)C(Cl)Cl)[C@H](O)c1ccc([N+](=O)[O-])cc1	inactive
OCCN(CCO)CCO	inactive
Cc1cc(O)c2c(c1)O[C@@]1(C)CC[C@H]3C(C)(C)CCCC34CO[C@@H]2[C@H]41 (some centres undefined)	inactive
Cc1c(-c2ccc(O)cc2)n(Cc2ccc(OCCN3CCCCCC3)cc2)c2ccc(O)cc12	active
C[Se]CC[C@H](N)C(=O)O	inactive

As a next step, examine the compound that follows.
Which outcome was assigned to `COc1c(OCCCN2CCOCC2)ccc2c3n(c(=NC(=O)c4cnc(N)nc4)nc12)CCN3` in this test?
active

----------
# Target entity: M-phase phosphoprotein 8 (Homo sapiens)
# Assay protocol: qHTS Validation Assay for Inhibitors for MPP8 Chromodomain Interactions with Methylated Histone Tails (AID 488949); note: nearly all actives have a fitted effect of over 55% in size
# Measurement parameters: AlphaScreen MPP8 binding to H3K9me3 peptide; series mostly up to 114 µM
Records with an inconclusive call do not appear. Activity calls are given as the source filed them. Calls follow the shape of the dose curve; as a rule, active = well fitted inhibition curve with a large enough effect; inconclusive = small, poorly fitted or top-dose-only effect; inactive = no such curve, though single readings can be large or run the other way.
# output must be one of YES = active, NO = inactive

Which outcome was assigned to COc1cc([C@@H]2c3cc4c(cc3[C@H](O)C3COC(=O)[C@@H]32)OCO4)cc(OC)c1OC (stereo not given in full) in this test?
NO

Which outcome was assigned to `COc1ccc(-n2nc(C(F)(F)F)cc2-c2ccc(Cl)cc2)cc1` in this test?
NO

Which outcome was assigned to `O=[N+]([O-])c1ccc(O[C@@H]2O[C@H](CO)[C@@H](O)[C@H](O)[C@H]2F)c([N+](=O)[O-])c1` in this test?
NO

Which outcome was assigned to `CC(=O)OCC1=C(C(=O)[O-])N2C(=O)[C@@H](NC(=O)CCC[C@@H](N)C(=O)[O-])[C@H]2SC1.[Zn+2]` in this test?
YES

Which outcome was assigned to C=CCN1CCC2(C)c3cc(O)ccc3CC1C2C (stereo not given) in this test?
NO

Which outcome was assigned to `N#CC(C#N)=Cc1ccc([N+](=O)[O-])c(O)c1` in this test?
NO

Which outcome was assigned to `N[C@H](CCCCCP(=O)(O)O)C(=O)O` in this test?
NO

Which outcome was assigned to `CN1CCN(c2ccc3ccccc3n2)CC1` in this test?
NO

Which outcome was assigned to `N[C@@H](Cn1cc(I)c(=O)[nH]c1=O)C(=O)O` in this test?
NO

Which outcome was assigned to `Oc1ccccc1O` in this test?
YES

Which outcome was assigned to `C[C@]12C=CC(=O)C=C1CC[C@@H]1C2=CC[C@]2(C)[C@@H](C(=O)CN3CCN(c4cc(N5CCCC5)nc(N5CCCC5)n4)CC3)CC[C@@H]12` in this test?
NO

Which outcome was assigned to CN1CCc2cc(O)cc3c2C1Cc1ccc(O)c(O)c1-3 (stereo not given) in this test?
YES

Which outcome was assigned to `Nc1ncnc2c1ncn2[C@@H]1O[C@H](COP(=O)(O)CP(=O)(O)OP(=O)(O)O)[C@@H](O)[C@H]1O` in this test?
NO

Which outcome was assigned to `C1CCc2nnnn2CC1` in this test?
NO

Which outcome was assigned to `Brc1c(Br)c(Br)c2n[nH]nc2c1Br` in this test?
NO
